Target: hTRβ LBD (Homo sapiens, UniProt P10828)
Sequence (P10828 202-461): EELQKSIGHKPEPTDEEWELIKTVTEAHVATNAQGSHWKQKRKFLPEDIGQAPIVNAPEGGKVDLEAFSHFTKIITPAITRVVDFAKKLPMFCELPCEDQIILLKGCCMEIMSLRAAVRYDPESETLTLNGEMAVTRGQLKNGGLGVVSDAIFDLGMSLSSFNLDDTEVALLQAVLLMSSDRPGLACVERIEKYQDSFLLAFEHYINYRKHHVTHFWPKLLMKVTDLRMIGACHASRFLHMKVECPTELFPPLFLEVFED
Test: Peptide competition of GRIP1 (563-767) interaction with hTRβ LBD
Format: binding
Parameters: made in house; host or cells: TR LBD: in vitro translation (reticulocyte lysate); GST-GRIP1 fragment: E. coli HB101
Experimental endpoint: competition with TR LBD interaction with GRIP1 (563-767)

KENALLRYLLDKDDTKD
increased affinity
TSLKEKHKILHRLLQDS
increased affinity
PKKKENALLRYLLDKDDTKD
increased affinity

Values from patent US6965850B2
